experiment: Kinetic solubility
Format: physicochemical
condition_label: pH 6.8, aqueous buffer, kinetic from dmso stock; read-out: Kinetic solubility pH 6.8
property_label: solubility kinetic

Problem: Entry Cc1nc(C2CC2)ccc1CNC(=O)c1cc(-n2cccn2)ccc1Cl : reported solubility kinetic = ?
Solution: < 1 µM

---

What pEC50 was measured for each of the following?
tgt: rat mGlu1 (Rattus norvegicus, UniProt P23385)
Sequence (P23385 19-1199): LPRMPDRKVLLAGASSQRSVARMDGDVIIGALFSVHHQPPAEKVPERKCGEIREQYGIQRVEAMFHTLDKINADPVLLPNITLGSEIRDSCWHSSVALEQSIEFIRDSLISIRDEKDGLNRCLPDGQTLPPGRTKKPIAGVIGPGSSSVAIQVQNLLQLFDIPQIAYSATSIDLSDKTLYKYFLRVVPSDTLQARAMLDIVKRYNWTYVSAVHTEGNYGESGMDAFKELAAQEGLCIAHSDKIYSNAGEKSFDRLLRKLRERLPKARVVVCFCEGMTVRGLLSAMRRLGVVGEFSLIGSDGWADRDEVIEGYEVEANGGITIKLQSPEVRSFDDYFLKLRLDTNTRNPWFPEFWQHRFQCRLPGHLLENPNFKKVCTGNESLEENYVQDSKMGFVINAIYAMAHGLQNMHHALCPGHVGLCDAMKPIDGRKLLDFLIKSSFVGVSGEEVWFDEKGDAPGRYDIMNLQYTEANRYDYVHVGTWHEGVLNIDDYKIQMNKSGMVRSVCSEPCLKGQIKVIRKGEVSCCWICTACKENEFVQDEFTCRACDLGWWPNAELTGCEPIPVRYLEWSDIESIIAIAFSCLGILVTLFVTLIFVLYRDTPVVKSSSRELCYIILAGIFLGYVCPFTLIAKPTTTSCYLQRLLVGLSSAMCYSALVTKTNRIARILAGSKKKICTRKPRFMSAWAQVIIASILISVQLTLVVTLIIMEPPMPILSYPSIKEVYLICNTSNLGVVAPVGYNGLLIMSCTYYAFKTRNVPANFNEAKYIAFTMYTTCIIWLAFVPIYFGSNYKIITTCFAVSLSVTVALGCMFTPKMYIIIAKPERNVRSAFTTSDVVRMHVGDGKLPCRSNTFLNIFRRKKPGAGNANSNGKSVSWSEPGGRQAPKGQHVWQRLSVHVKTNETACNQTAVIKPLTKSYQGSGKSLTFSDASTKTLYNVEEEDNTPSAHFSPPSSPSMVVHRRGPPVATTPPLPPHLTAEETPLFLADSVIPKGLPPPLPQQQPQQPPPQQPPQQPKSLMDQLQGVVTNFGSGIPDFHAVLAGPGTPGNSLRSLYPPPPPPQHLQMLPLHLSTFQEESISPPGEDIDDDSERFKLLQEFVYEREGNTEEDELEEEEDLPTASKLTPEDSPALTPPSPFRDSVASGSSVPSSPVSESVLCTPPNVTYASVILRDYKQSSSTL
experiment: mGlu1 PAM functional assay (rat)
Worth noting: pEC50 values are minus log10 of concentrations stated in mol/L.

Problem: For the record Cc1nc(C2CC2)ccc1CNC(=O)c1cc(-n2cccn2)ccc1Cl [compound 8] , what value of pEC50 is listed for rat mGlu1 (Rattus norvegicus, UniProt P23385)?
Solution: 6.97

Problem: For the record Cn1nc(-c2ccnn2C)cc1CNC(=O)c1cc(-n2cccn2)ccc1Cl [compound 5] , what value of pEC50 is listed for rat mGlu1 (Rattus norvegicus, UniProt P23385)?
Solution: 6.25

Problem: For the record Cn1cc(-c2cc(CNC(=O)c3cc(-c4ccco4)ccc3Cl)n(C)n2)cn1 [compound 4] , what value of pEC50 is listed for rat mGlu1 (Rattus norvegicus, UniProt P23385)?
Solution: 7.43

---

experiment: Unbound fraction in brain (rat)
Format: in vitro ADME
condition_label: read-out: fu brain (rat)
property_label: fraction unbound
Provide a numeric answer; units are not to be included.

Problem: Entry Cc1nc(C2CC2)ccc1CNC(=O)c1cc(-n2cccn2)ccc1Cl [compound 8] : reported fraction unbound = ?
Solution: 0.062

Problem: Entry Cc1nc2ccccc2cc1CNC(=O)c1cc(-n2cccn2)ccc1Cl [compound 6] : reported fraction unbound = ?
Solution: 0.047

Problem: Entry Cc1nc2c(F)cccc2cc1CNC(=O)c1cc(-n2cccn2)ccc1Cl [compound 7] : reported fraction unbound = ?
Solution: 0.04

Problem: Entry Cn1cc(-c2cc(CNC(=O)c3cc(-c4ccco4)ccc3Cl)n(C)n2)cn1 [compound 4] : reported fraction unbound = ?
Solution: 0.044

Problem: Entry Cn1nc(-c2ccnn2C)cc1CNC(=O)c1cc(-n2cccn2)ccc1Cl [compound 5] : reported fraction unbound = ?
Solution: 0.185

---

What fraction unbound at 4 h, 5 µM was measured for each of the following?
experiment: Plasma protein binding, equilibrium dialysis (rat)
Assay type: in vitro ADME
condition_label: pH 7.4, rat plasma, read-out: fu plasma (r)
Provide a numeric answer; units are not to be included.

Problem: Entry Cc1nc2ccccc2cc1CNC(=O)c1cc(-n2cccn2)ccc1Cl [compound 6] : reported fraction unbound at 4 h, 5 µM = ?
Solution: 0.054

Problem: Entry Cn1nc(-c2ccnn2C)cc1CNC(=O)c1cc(-n2cccn2)ccc1Cl [compound 5] : reported fraction unbound at 4 h, 5 µM = ?
Solution: 0.095

Problem: Entry Cc1nc2c(F)cccc2cc1CNC(=O)c1cc(-n2cccn2)ccc1Cl [compound 7] : reported fraction unbound at 4 h, 5 µM = ?
Solution: 0.016

Problem: Entry Cn1cc(-c2cc(CNC(=O)c3cc(-c4ccco4)ccc3Cl)n(C)n2)cn1 [compound 4] : reported fraction unbound at 4 h, 5 µM = ?
Solution: 0.04

Problem: Entry Cc1nc(C2CC2)ccc1CNC(=O)c1cc(-n2cccn2)ccc1Cl [compound 8] : reported fraction unbound at 4 h, 5 µM = ?
Solution: 0.097
